Biological target: Rat NHE-3 (Rattus norvegicus)
Construct: expressed in transfected cells; host or cells: Opossum kidney (OK) cells (ATCC), transfected by electroporation
Sequence (P26433 29-831): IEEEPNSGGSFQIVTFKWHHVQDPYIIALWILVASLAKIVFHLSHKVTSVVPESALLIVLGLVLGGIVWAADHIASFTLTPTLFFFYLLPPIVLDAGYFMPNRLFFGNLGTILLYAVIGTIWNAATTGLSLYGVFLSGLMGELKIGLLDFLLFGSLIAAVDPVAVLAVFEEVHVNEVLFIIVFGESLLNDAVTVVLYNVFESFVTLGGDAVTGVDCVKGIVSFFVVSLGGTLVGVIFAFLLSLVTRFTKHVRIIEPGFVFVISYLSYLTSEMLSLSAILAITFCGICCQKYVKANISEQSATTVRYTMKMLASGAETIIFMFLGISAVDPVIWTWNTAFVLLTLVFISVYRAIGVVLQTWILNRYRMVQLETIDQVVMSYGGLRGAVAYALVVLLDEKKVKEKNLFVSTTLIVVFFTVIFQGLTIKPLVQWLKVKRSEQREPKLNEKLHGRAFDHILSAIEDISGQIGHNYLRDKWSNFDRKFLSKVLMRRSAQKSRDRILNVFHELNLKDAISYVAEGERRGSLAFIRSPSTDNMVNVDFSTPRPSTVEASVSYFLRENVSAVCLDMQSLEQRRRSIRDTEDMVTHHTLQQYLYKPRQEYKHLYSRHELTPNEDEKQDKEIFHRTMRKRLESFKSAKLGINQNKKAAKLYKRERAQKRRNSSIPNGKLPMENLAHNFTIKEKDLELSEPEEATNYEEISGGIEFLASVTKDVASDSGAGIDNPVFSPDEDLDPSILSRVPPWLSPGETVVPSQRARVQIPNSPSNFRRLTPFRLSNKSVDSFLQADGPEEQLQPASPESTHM
Assay: Cell-based assay of NHE-3 activity (persistent inhibition, after washout)
Details: OK cells with rat NHE-3 gene, 60 min incubation, recovery initiated 40 min after compound washout
parameter: Rat NHE3 pIC50 (persistent)

CN1Cc2c(Cl)cc(Cl)cc2[C@H](c2cccc(S(=O)(=O)NCCOCCOCCNC(=O)CCC(CCC(=O)NCCOCCOCCNS(=O)(=O)c3cccc([C@@H]4CN(C)Cc5c(Cl)cc(Cl)cc54)c3)(CCC(=O)NCCOCCOCCNS(=O)(=O)c3cccc([C@@H]4CN(C)Cc5c(Cl)cc(Cl)cc54)c3)NC(=O)N3CCN(CCOCCO)CC3)c2)C1 = C (C NHE3 pIC50 > 7)
CN1Cc2c(Cl)cc(Cl)cc2[C@H](c2cccc(S(=O)(=O)NCCOCCOCCNC(=O)NCCCC(CCCNC(=O)NCCOCCOCCNS(=O)(=O)c3cccc([C@@H]4CN(C)Cc5c(Cl)cc(Cl)cc54)c3)(CCCNC(=O)NCCOCCOCCNS(=O)(=O)c3cccc([C@@H]4CN(C)Cc5c(Cl)cc(Cl)cc54)c3)NC(=O)NC[C@H](O)[C@@H](O)[C@H](O)[C@H](O)CO)c2)C1 = C (C NHE3 pIC50 > 7)
CCN(CCOCCOCCNC(=O)NCCCN(CCCNC(=O)NCCOCCOCCN(CC)S(=O)(=O)c1cccc([C@@H]2CN(C)Cc3c(Cl)cc(Cl)cc32)c1)CCCNC(=O)NCCOCCOCCN(CC)S(=O)(=O)c1cccc([C@@H]2CN(C)Cc3c(Cl)cc(Cl)cc32)c1)S(=O)(=O)c1cccc([C@@H]2CN(C)Cc3c(Cl)cc(Cl)cc32)c1 = C (C NHE3 pIC50 > 7)

====

Target: human NHE-3 (Homo sapiens, UniProt P48764)
Construct: expressed in transfected cells; host or cells: Opossum kidney (OK) cells (ATCC), transfected by electroporation
Sequence (P48764 26-834): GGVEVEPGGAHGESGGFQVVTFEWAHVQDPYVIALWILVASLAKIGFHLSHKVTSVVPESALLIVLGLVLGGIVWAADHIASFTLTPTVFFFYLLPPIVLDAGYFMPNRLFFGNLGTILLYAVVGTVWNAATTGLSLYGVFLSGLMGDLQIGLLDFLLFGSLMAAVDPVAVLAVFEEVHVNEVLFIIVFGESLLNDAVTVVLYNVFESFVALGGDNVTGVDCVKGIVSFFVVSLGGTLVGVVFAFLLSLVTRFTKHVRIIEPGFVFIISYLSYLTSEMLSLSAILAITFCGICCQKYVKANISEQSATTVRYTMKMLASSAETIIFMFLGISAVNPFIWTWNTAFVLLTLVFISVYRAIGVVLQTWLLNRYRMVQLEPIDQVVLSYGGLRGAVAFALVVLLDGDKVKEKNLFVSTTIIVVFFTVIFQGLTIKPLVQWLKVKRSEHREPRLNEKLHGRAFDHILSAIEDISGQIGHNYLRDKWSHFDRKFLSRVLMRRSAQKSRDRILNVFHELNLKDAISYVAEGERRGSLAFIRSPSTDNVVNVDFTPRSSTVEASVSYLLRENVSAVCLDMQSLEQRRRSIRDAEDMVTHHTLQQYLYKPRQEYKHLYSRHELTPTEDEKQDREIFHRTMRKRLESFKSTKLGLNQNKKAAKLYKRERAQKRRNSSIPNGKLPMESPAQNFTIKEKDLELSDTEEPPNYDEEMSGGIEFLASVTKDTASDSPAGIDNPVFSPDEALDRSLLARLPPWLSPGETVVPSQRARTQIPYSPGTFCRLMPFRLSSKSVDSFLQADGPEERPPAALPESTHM
Assay: Cell-based assay of NHE-3 activity (human NHE3 inhibition assay)
Details: OK cells with human NHE-3 gene, BCECF pH dye, 0-30 μM test compound
parameter: Human NHE3 pIC50

CN1Cc2c(Cl)cc(Cl)cc2[C@H](c2cccc(S(=O)(=O)NCCOCCOCCNC(=O)CCC(CCC(=O)NCCOCCOCCNS(=O)(=O)c3cccc([C@@H]4CN(C)Cc5c(Cl)cc(Cl)cc54)c3)(CCC(=O)NCCOCCOCCNS(=O)(=O)c3cccc([C@@H]4CN(C)Cc5c(Cl)cc(Cl)cc54)c3)NC(=O)Cn3ccnc3)c2)C1 = B (B NHE3 pIC50 5-7)
CNC(=O)NC(CCC(=O)NCCOCCOCCNS(=O)(=O)c1cccc([C@@H]2CN(C)Cc3c(Cl)cc(Cl)cc32)c1)(CCC(=O)NCCOCCOCCNS(=O)(=O)c1cccc([C@@H]2CN(C)Cc3c(Cl)cc(Cl)cc32)c1)CCC(=O)NCCOCCOCCNS(=O)(=O)c1cccc([C@@H]2CN(C)Cc3c(Cl)cc(Cl)cc32)c1 = C (C NHE3 pIC50 > 7)
CN1Cc2c(Cl)cc(Cl)cc2[C@H](c2cccc(S(=O)(=O)NCCOCCOCCNC(=O)NCCN(CCNC(=O)NCCOCCOCCNS(=O)(=O)c3cccc([C@@H]4CN(C)Cc5c(Cl)cc(Cl)cc54)c3)C(=O)NCCCCNC(=O)N(CCNC(=O)NCCOCCOCCNS(=O)(=O)c3cccc([C@@H]4CN(C)Cc5c(Cl)cc(Cl)cc54)c3)CCNC(=O)NCCOCCOCCNS(=O)(=O)c3cccc([C@@H]4CN(C)Cc5c(Cl)cc(Cl)cc54)c3)c2)C1 = C (C NHE3 pIC50 > 7)
CN1Cc2c(Cl)cc(Cl)cc2[C@H](c2cccc(S(=O)(=O)N(C)CCOCCOCCNC(=O)NCCCN(CCCNC(=O)NCCOCCOCCN(C)S(=O)(=O)c3cccc([C@@H]4CN(C)Cc5c(Cl)cc(Cl)cc54)c3)CCCNC(=O)NCCOCCOCCN(C)S(=O)(=O)c3cccc([C@@H]4CN(C)Cc5c(Cl)cc(Cl)cc54)c3)c2)C1 = C (C NHE3 pIC50 > 7)
CN1Cc2c(Cl)cc(Cl)cc2[C@H](c2cccc(S(=O)(=O)NCCOCCOCCN(C)C(=O)CCC(CCC(=O)N(C)CCOCCOCCNS(=O)(=O)c3cccc([C@@H]4CN(C)Cc5c(Cl)cc(Cl)cc54)c3)(CCC(=O)N(C)CCOCCOCCNS(=O)(=O)c3cccc([C@@H]4CN(C)Cc5c(Cl)cc(Cl)cc54)c3)NC(=O)COCC(=O)O)c2)C1 = C (C NHE3 pIC50 > 7)

Now consider a different compound.
Dear colleague, please send me the reported Human NHE3 pIC50 for CN1Cc2c(Cl)cc(Cl)cc2[C@H](c2cccc(S(=O)(=O)NCCOCCOCCNC(=O)NCCN(CCNC(=O)NCCOCCOCCNS(=O)(=O)c3cccc([C@@H]4CN(C)Cc5c(Cl)cc(Cl)cc54)c3)CCNC(=O)NCCOCCOCCNS(=O)(=O)c3cccc([C@@H]4CN(C)Cc5c(Cl)cc(Cl)cc54)c3)c2)C1 when you can.
B (B NHE3 pIC50 5-7)

Origin of values: patent US10385024B2
